Give measured pIC50 for each item. Keep answers brief.
Tested on: Vero cells
assay_method_text: Anti-proliferation activity, CTG, Vero cells
Format: cell-based
test_settings: Vero cells, 48 h, CTG
Give bare numbers, as −log10 of the molar value.

{"molecule": "CNC(=S)c1ccc(-c2cnc3ncc(C(=O)c4ccc5ncccc5c4)n3n2)cc1F [Compound 22]", "pIC50": 6.64}
{"molecule": "CNC(=S)c1ccc(-c2cnc3ncc(Cc4cc(Cl)c5ncccc5c4)n3n2)cc1F [Compound 15]", "pIC50": 6.62}
{"molecule": "CNC(=S)c1ccc(-c2cnc3ncc(Cc4cc(F)c5ncccc5c4)n3n2)cc1F [Compound 13]", "pIC50": 6.82}
{"molecule": "CNC(=S)c1ccc(-c2cnc3ncc(Cc4ccc5ncccc5c4)n3n2)c(F)c1F [Compound 7]", "pIC50": 6.90}
{"molecule": "CNC(=S)c1ccc(-c2cnc3ncc(Cc4ccc5ncccc5c4)n3n2)cc1F [Compound 1]", "pIC50": 6.89}
{"molecule": "CNC(=S)c1ccc(-c2cnc3ncc(/C(=N/OC)c4ccc5ncccc5c4)n3n2)cc1F [Compound 27]", "pIC50": 6.79}

For each entry beneath this line, provide reported pIC50.
1. CNC(=S)c1ccc(-c2cnc3ncc(Cc4ccc5ncccc5c4)n3n2)c(F)c1 [Compound 5]
2. CNC(=S)c1ccc(-c2cnc3ncc(C(N)c4ccc5ncccc5c4)n3n2)cc1F (centres unmarked) [Compound 26]
3. CNC(=S)c1cc(F)c(-c2cnc3ncc(Cc4ccc5ncccc5c4)n3n2)cc1F [Compound 6]
4. CNC(=S)c1ccc(-c2cnc3ncc(C(OC)c4ccc5ncccc5c4)n3n2)cc1F (centres unmarked) [Compound 23]
5. CNC(=S)c1ccc(-c2cnc3ncc(Cc4ccc5ncccc5c4)n3n2)cc1Cl [Compound 8]
6. CNC(=S)c1ccc(-c2cnc3ncc(Cc4cc(C(F)(F)F)c5ncccc5c4)n3n2)cc1F [Compound 16]

RESULT:
6.86
6.55
6.94
6.80
6.85
6.81

For each entry beneath this line, provide reported pIC50.
1. CNC(=S)c1ccc(-c2cnc3ncc(C(O)c4ccc5ncccc5c4)n3n2)cc1F (centres unmarked) [Compound 21]
2. CNC(=S)c1ccc(-c2cnc3ncc(C(F)(F)c4ccc5ncccc5c4)n3n2)cc1F [Compound 28]

RESULT:
1: 6.88; 2: 6.63

* * *

Tested on: SPF Kunming mice
test_settings: mouse, in vivo, po
Threshold-based label: LD50 under 300 mg/kg gives TRUE, LD50 not under 300 mg/kg gives FALSE.

Here's what some known entries look like.
{"compound": "CNC(=S)c1ccc(-c2cnc3ncc(Cc4ccc5ncccc5c4)n3n2)cc1Cl [Compound 8]", "classification": "FALSE"}
{"compound": "CNC(=S)c1ccc(-c2cnc3ncc(C(c4ccc5ncccc5c4)N(C)C)n3n2)cc1F (stereo not shown) [Compound 25]", "classification": "TRUE"}
{"compound": "CNC(=S)c1ccc(-c2cnc3ncc(/C(=N/OC)c4ccc5ncccc5c4)n3n2)cc1F [Compound 27]", "classification": "FALSE"}

QUERY: Lab log: compare recorded LD50 with 300 mg/kg; is it strictly lower for CNC(=S)c1ccc(-c2cnc3ncc(C(OC)c4ccc5ncccc5c4)n3n2)cc1F (stereo not shown) [Compound 23] ?
RESULT: FALSE

* * *

experimental_system: c-MET (Homo sapiens (Human))
assay_method_text: c-MET kinase inhibitory activity (ELISA, poly(Glu,Tyr) substrate)
Type: biochemical
test_settings: ATP 4 μM, 37° C. 1 h; read-out: c-MET kinase inhibitory enzymatic activity IC50
reported_property: IC50 (pM)
Give bare numbers, in pM.

# annotated cases, reported IC50 shown
{"molecule": "CNC(=S)c1ccc(-c2cnc3ncc(Cc4cc(F)c5ncccc5c4F)n3n2)cc1F [Compound 14]", "IC50 (pM)": 2.6}
{"molecule": "CNC(=S)c1ccc(-c2cnc3ncc(Cc4cc(Cl)c5ncccc5c4)n3n2)cc1F [Compound 15]", "IC50 (pM)": 1.3}
{"molecule": "CNC(=S)c1ccc(-c2cnc3ncc(Cc4ccc5ncccc5c4)n3n2)cc1F [Compound 1]", "IC50 (pM)": 2.2}

Now, please, on to the next molecule.
Record CNC(=S)c1ccc(-c2cnc3ncc(Cc4ccc5ncccc5c4)n3n2)c(F)c1 [Compound 5] . Reported IC50: 2.1

* * *

experimental_system: c-MET (Homo sapiens (Human), UniProt P08581)
Sequence (P08581 25-1390): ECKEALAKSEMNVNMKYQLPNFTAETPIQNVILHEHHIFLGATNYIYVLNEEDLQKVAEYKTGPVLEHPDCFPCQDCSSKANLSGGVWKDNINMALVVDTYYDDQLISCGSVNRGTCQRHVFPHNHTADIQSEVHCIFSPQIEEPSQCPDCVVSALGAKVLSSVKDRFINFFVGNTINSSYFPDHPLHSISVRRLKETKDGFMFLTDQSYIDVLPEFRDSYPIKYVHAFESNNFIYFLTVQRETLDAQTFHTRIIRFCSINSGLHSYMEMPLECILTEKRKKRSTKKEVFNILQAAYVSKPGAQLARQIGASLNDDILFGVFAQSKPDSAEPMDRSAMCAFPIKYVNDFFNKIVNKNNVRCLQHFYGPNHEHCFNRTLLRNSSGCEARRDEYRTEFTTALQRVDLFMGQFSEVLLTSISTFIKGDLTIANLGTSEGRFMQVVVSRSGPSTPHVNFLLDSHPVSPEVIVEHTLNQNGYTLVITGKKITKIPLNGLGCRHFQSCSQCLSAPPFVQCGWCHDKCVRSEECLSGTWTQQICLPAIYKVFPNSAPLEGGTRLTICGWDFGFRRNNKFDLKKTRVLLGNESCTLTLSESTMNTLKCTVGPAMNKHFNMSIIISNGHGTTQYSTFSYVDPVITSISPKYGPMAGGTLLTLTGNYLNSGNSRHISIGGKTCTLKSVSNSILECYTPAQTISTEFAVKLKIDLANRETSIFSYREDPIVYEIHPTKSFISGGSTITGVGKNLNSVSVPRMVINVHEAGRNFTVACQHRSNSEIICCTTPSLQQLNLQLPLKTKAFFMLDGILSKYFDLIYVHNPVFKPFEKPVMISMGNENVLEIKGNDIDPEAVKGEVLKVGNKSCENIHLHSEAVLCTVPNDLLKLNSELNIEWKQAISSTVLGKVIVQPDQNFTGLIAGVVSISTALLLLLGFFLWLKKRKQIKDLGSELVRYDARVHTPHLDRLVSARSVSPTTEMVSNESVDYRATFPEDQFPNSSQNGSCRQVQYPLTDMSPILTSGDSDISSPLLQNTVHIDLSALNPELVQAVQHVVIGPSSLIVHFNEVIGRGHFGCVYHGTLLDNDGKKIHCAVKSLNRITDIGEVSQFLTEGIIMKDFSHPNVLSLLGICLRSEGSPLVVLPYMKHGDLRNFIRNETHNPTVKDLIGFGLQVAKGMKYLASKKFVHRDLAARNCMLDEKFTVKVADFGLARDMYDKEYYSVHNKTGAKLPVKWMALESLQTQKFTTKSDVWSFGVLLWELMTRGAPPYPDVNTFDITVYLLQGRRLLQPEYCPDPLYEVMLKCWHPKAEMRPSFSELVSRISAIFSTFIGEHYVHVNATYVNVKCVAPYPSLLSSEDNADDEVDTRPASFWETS
assay_method_text: c-MET kinase inhibitory activity (ELISA, poly(Glu,Tyr) substrate)
Type: biochemical
test_settings: read-out: c-MET kinase inhibitory enzymatic activity IC50
reported_property: IC50 (pM)
Numbers only, in pM.

Record CNC(=S)c1ccc(-c2cnc3ncc(C(c4ccc5ncccc5c4)N(C)C)n3n2)cc1F (stereo not shown) [Compound 25] . Reported IC50: 2.3

* * *

Give measured LD50 for each item. Keep answers brief.
System: SPF Kunming mice
test_settings: mouse, in vivo, po
One number for each entry, in mg/kg.

# annotated cases, reported LD50 shown
{"smiles": "CNC(=S)c1ccc(-c2cnc3ncc(Cc4ccc5ncccc5c4)n3n2)c(F)c1F", "LD50, mg/kg": 305}
{"smiles": "CNC(=S)c1ccc(-c2cnc3ncc(Cc4ccc5ncccc5c4)n3n2)c(F)c1", "LD50, mg/kg": 298}
{"smiles": "CNC(=S)c1ccc(-c2cnc3ncc(Cc4cc(F)c5ncccc5c4)n3n2)cc1F", "LD50, mg/kg": 314}

Now, please, on to the next molecule.
Record CNC(=S)c1cc(F)c(-c2cnc3ncc(Cc4ccc5ncccc5c4)n3n2)cc1F . Reported LD50: 292

* * *

experimental_system: c-MET (Homo sapiens (Human))
assay_method_text: c-MET kinase inhibitory activity (ELISA, poly(Glu,Tyr) substrate)
Format: biochemical
test_settings: ATP 4 μM, 37° C. 1 h; read-out: c-MET kinase inhibitory enzymatic activity IC50
reported_property: IC50 (pM)
Answers are plain numbers, in pM.

For each entry beneath this line, provide reported IC50.
1. CNC(=S)c1ccc(-c2cnc3ncc(C(N)c4ccc5ncccc5c4)n3n2)cc1F (centres unmarked) [Compound 26]
2. CN(C)C(=S)c1ccc(-c2cnc3ncc(Cc4ccc5ncccc5c4)n3n2)cc1F [Compound 2]
3. CC(C)NC(=S)c1ccc(-c2cnc3ncc(Cc4ccc5ncccc5c4)n3n2)cc1F [Compound 3]
4. CNC(=S)c1ccc(-c2cnc3ncc(C(O)c4ccc5ncccc5c4)n3n2)cc1F (centres unmarked) [Compound 21]
5. CNC(=S)c1ccc(-c2cnc3ncc(C(=O)c4ccc5ncccc5c4)n3n2)cc1F [Compound 22]

RESULT:
1: 1.7; 2: 1.9; 3: 1.6; 4: 1.4; 5: 1.6

For each entry beneath this line, provide reported IC50.
1. CNC(=S)c1ccc(-c2cnc3ncc(C(F)(F)c4ccc5ncccc5c4)n3n2)cc1F [Compound 28]
2. CNC(=S)c1ccc(-c2cnc3ncc(Cc4ccc5ncccc5c4)n3n2)cc1OC [Compound 12]
3. CNC(=S)c1ccc(-c2cnc3ncc(/C(=N/OC)c4ccc5ncccc5c4)n3n2)cc1F [Compound 27]

RESULT:
1: 1.8; 2: 1.9; 3: 1.9

* * *

Give measured LD50 for each item. Keep answers brief.
assay_method_text: in vivo
test_settings: both, Kunming, mouse, po
Give bare numbers, in mg/kg.

# annotated cases, reported LD50 shown
{"smiles": "CNC(=S)c1ccc(-c2cnc3ncc(Cc4ccc5occc5c4)n3n2)cc1F", "observed_value": 302}
{"smiles": "CNC(=S)c1ccc(-c2cnc3ncc(Cc4cc(F)c5ncccc5c4F)n3n2)cc1F", "observed_value": 291}
{"smiles": "CNC(=S)c1ccc(-c2cnc3ncc(Cc4ccc5ncccc5c4)n3n2)cc1N", "observed_value": 297}

Now, please, on to the next molecule.
Record CNC(=S)c1ccc(-c2cnc3ncc(Cc4ccc5scnc5c4)n3n2)cc1F . Reported LD50: 297

* * *

experimental_system: c-MET (Homo sapiens (Human))
assay_method_text: c-MET kinase inhibitory activity (ELISA, poly(Glu,Tyr) substrate)
Type: biochemical
test_settings: ATP 4 μM, 37° C. 1 h; read-out: c-MET kinase inhibitory enzymatic activity IC50
reported_property: IC50 (pM)
Numbers only, in pM.

# annotated cases, reported IC50 shown
{"compound": "CNC(=S)c1ccc(-c2cnc3ncc(Cc4ccc5nccnc5c4)n3n2)cc1F [Compound 17]", "IC50, pM": 1.6}
{"compound": "CNC(=S)c1ccc(-c2cnc3ncc(C(OC)c4ccc5ncccc5c4)n3n2)cc1F (stereo not shown) [Compound 23]", "IC50, pM": 1.5}
{"compound": "CNC(=S)c1ccc(-c2cnc3ncc(Cc4ccc5ncccc5c4)n3n2)c(F)c1F [Compound 7]", "IC50, pM": 2.2}

Now, please, on to the next compound.
# IC50 measured on c-MET (Homo sapiens (Human)) for item Fc1cc(-c2cnc3ncc(Cc4ccc5ncccc5c4)n3n2)ccc1C(=S)NC1CC1 [Compound 4] = 2.5

* * *

experimental_system: c-MET (Homo sapiens (Human))
assay_method_text: c-MET kinase inhibitory activity (ELISA, poly(Glu,Tyr) substrate)
Assay type: biochemical
test_settings: ATP 4 μM, 37° C. 1 h; read-out: c-MET kinase inhibitory enzymatic activity IC50
Threshold-based label: IC50 under 2 pM gives met, IC50 not under 2 pM gives not met.

{"molecule": "CNC(=S)c1ccc(-c2cnc3ncc(Cc4ccc5c(c4)OCO5)n3n2)cc1F [Compound 20]", "experimental_system": "c-MET (Homo sapiens (Human))", "classification": "not met"}

Okay, now this molecule:
QUERY: Lab log: compare recorded IC50 with 2 pM; is it strictly lower for CNC(=S)c1ccc(-c2cnc3ncc(Cc4ccc5ncccc5c4)n3n2)cc1Cl [Compound 8] ?
RESULT: met
